# measurement target: CDK2 (UniProt P24941)
# protocol: Enzyme Assay
hey, just use TRUE if measured IC50 is less than 900 nM, otherwise FALSE

Here's what some known entries look like.
>  <compound>
COc1ccc(-c2[nH]nc3c2C(=O)c2c(NC(C)=O)cccc2-3)cc1

>  <assigned category>
TRUE

$$$$
>  <compound>
CCC(=O)NS(=O)(=O)c1ccc(Nc2nc(N)n(C(=O)c3c(F)cccc3F)n2)cc1

>  <assigned category>
TRUE

$$$$
>  <compound>
O=S1(=O)CCc2cnc(Nc3ccc(N4CCNCC4)cc3)nc2N1C1CCCC1

>  <assigned category>
FALSE

$$$$
>  <compound>
CCc1n[nH]c2c(N/C=C/C(C)C)ncnc12

>  <assigned category>
FALSE

$$$$
>  <compound>
CCCCOc1cc(N)nc(N)c1C(=O)c1c(F)cccc1F

>  <assigned category>
FALSE

$$$$

INPUT: Lab note: IC50 threshold 900 nM. Does this compound come in strictly under it? CCN(CC)CCOc1ccc(Nc2ncc3c(=O)n(Cc4ccc(OC)cc4)c(=O)n(C(C)C)c3n2)cc1
OUTPUT: FALSE

INPUT: Does the reported IC50 of the following compound sit strictly below 900 nM? O=c1ccc2cnc(Nc3ccc(N4CCCCC4)cc3)nc2n1C1CCCO1 (stereo unspecified)
OUTPUT: FALSE

INPUT: is_below(IC50, 900 nM) for CN(C)CC(O)COc1ccc(Nc2cc(Nc3ccccc3F)ncn2)cc1 (stereo unspecified) ?
OUTPUT: FALSE

INPUT: Lab note: IC50 threshold 900 nM. Does this compound come in strictly under it? C=C1NC(=O)c2c1c1c3ccccc3[nH]c1c1[nH]c3ccccc3c21
OUTPUT: FALSE

INPUT: Lab note: IC50 threshold 900 nM. Does this compound come in strictly under it? COc1ccc(CCNc2nc(N[C@H]3CC[C@H](N)CC3)nc3c2ncn3C2CCCC2)cc1
OUTPUT: TRUE

INPUT: Input Cc1cc(C(=O)NCCN2CCOCC2)[nH]c1/C=C1\C(=O)Nc2nccc(Nc3ccc(F)c(Cl)c3)c21 ; condition: IC50 strictly below 900 nM. Does it hold?
OUTPUT: FALSE

INPUT: Quick check: does O=C1Nc2ccc(Cl)cc2/C1=C1/Nc2ccccc2C1=O have IC50 under 900 nM?
OUTPUT: TRUE

INPUT: Lab note: IC50 threshold 900 nM. Does this compound come in strictly under it? Cn1c2ccccc2c2c3c(c4c5ccc(F)cc5[nH]c4c21)C(=O)NC3=O
OUTPUT: TRUE

INPUT: In plain terms, does CCCNc1nc(N[C@H]2CC[C@H](N)CC2)nc2c1ncn2C1CCCC1 come in under 900 nM for IC50?
OUTPUT: TRUE
